Each record here notes measured clearance.
test: Clearance in C57BL/6 mouse at 0.5 mg/kg, iv
Type: ADME, organism-based
assayConditions: in vivo
Provide only the numeric value, understood in mL/min/kg.

[[record]]
moleculesmiles = "C[C@@H](C1CC1)N1Cc2cc(-c3ccn4nc(N)c(C(=O)N[C@H]5CC[C@@](C)(O)CC5)c4n3)cc(OC(F)F)c2C1=O"
measured = 14.7


Quick one: clearance of `C[C@@H](C1CC1)N1Cc2cc(-c3ccn4nc(N)c(C(=O)N[C@H]5CC[C@@](C)(O)CC5)c4n3)cc(OC(F)(F)F)c2C1=O` ? 17.2

* * *

target: Phosphatidylinositol 4,5-bisphosphate 3-kinase catalytic subunit gamma isoform (Homo sapiens, UniProt P48736)
Sequence (P48736 whole entry, canonical isoform): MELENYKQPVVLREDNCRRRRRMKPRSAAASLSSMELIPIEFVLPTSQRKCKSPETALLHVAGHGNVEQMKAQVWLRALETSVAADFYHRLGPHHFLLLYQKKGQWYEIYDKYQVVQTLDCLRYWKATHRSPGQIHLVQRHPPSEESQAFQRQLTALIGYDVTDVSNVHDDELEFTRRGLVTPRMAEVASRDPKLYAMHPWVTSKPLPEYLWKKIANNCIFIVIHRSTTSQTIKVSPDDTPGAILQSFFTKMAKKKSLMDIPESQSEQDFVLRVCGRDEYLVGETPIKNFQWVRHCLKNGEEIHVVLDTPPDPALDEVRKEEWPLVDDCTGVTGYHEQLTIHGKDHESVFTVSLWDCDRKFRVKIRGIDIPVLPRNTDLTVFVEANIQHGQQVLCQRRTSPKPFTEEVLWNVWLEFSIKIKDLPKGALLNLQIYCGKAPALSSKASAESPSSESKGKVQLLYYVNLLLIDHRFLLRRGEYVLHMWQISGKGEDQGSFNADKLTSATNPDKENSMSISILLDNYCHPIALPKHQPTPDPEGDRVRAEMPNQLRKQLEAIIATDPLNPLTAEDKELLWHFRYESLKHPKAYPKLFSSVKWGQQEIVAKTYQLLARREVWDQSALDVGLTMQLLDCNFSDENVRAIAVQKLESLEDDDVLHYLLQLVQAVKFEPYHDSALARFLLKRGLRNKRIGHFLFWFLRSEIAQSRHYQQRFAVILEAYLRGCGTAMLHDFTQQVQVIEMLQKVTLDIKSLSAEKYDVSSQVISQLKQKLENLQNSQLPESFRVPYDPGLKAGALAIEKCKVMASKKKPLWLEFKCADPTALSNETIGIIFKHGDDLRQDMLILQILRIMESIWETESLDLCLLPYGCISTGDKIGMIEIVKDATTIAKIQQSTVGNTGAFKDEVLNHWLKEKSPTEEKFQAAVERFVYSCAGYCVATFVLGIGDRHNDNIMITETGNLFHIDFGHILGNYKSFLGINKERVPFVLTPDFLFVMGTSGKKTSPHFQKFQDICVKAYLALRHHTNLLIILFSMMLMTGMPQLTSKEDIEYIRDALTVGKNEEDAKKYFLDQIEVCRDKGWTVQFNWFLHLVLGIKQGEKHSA
test: Inhibition of PI3Kgamma (unknown origin) in […] stimulated human THP-1 cells assessed as reduction in Akt phosphorylation level at Ser473 residue preincubated for 60 mins followed by rhMCP-1 stimulation and measured after 2 mins by AlphaLisa assay
Type: cell-based
Lab note: anything with IC50 below 80 nM is marked True; values at 80 nM or higher are marked False.

Field: example entries. Status: answers known.
[[record]]
moleculesmiles = "C[C@@H](C1CC1)N1Cc2cc(-c3ccn4nc(N)c(C(=O)N[C@H]5CC[C@@](C)(O)CC5)c4n3)cc(OC(F)(F)F)c2C1=O"
assignedcategory = "True"

[[record]]
moleculesmiles = "Cc1cc(-c2ccn3nc(N)c(C(=O)N[C@H]4CC[C@H](O)CC4)c3n2)cc2c1C(=O)N([C@@H](C)C1CC1)C2"
assignedcategory = "False"

[[record]]
moleculesmiles = "Cc1cc(-c2ccn3nc(N)c(C(=O)N[C@H]4CC[C@](C)(O)CC4)c3n2)cc2c1C(=O)N([C@@H](C)C1CC1)C2"
assignedcategory = "True"

[[record]]
moleculesmiles = "C[C@H](N1Cc2cc(-c3ccn4nc(N)c(C(=O)N[C@@H](CO)C5CC5)c4n3)cc(Cl)c2C1=O)C(F)(F)F"
assignedcategory = "False"

[[record]]
moleculesmiles = "C[C@H](N1Cc2cc(-c3ccn4nc(N)c(C(=O)N[C@@H](CO)C5CC5)c4n3)cc(NS(C)(=O)=O)c2C1=O)C(F)(F)F"
assignedcategory = "True"

[[record]]
moleculesmiles = "Cc1cc(-c2ccn3ncc(-c4cnn(C)c4)c3n2)cc2c1C(=O)N([C@@H](C)C1CC1)C2"
assignedcategory = "False"


Turning now to a further record.
Below 80 nM on IC50? Entry `CC(C)[C@H](N1Cc2cc(-c3ccn4nc(N)c(C(=O)NC5CC5)c4n3)cc(NS(C)(=O)=O)c2C1=O)C(F)(F)F` False
